# PROTOCOL SUMMARY: Minimal lethal dose of compound expressed as toxicity against male mice (ddY strain) after intraperitoneal administration
# SETUP CONDITIONS: mouse, in vivo, ip
MEASUREMENT TYPE: Min lethal dose

C[C@@]12O[C@]3(C)C[C@@H]4O[C@@H]5CC[C@@H]6O[C@@H]7C[C@@H]8O[C@H](CO)[C@@H](O)CC[C@H]8O[C@@]7(C)C[C@@]6(C)O[C@H]5C[C@H]4O[C@H]3C[C@H]1O[C@@H](CCCO)C[C@@H]2O; > 18.3 mg/kg
CCCCC/C=C\[C@H]1O[C@H]2C[C@H]3O[C@H]4CC[C@H]5O[C@H]6C[C@@]7(C)O[C@@]8(C)[C@@H](OCc9ccccc9)C[C@H](CCCOCc9ccccc9)O[C@@H]8C[C@@H]7O[C@@H]6C[C@@H]5O[C@]4(C)C[C@]3(C)O[C@@H]2CC[C@]1(C)O[Si](C)(C)C(C)(C)C; > 7.6 mg/kg

From here, focus on the item given below.
*Q* Given the molecule C=CC/C=C\C=C/[C@H]1O[C@H]2C[C@H]3O[C@H]4CC[C@H]5O[C@H]6C[C@@]7(C)O[C@@]8(C)[C@@H](O)C[C@H](CCCO)O[C@@H]8C[C@@H]7O[C@@H]6C[C@@H]5O[C@]4(C)C[C@]3(C)O[C@@H]2CC[C@]1(C)O , what is its reported Min lethal dose?
*A* 7.9 mg/kg

----------
List of Min lethal dose values.
# PROTOCOL SUMMARY: Minimal lethal dose of compound expressed as toxicity against male mice (ddY strain) after intraperitoneal administration
# SETUP CONDITIONS: mouse, in vivo, ip
Dear colleague, please return just the value in mg/kg, with no unit written.

C=CC/C=C\C=C/[C@H]1O[C@H]2C[C@H]3O[C@H]4CC[C@H]5O[C@H]6C[C@@]7(C)O[C@@]8(C)[C@@H](O)C[C@H](CCCO)O[C@@H]8C[C@@H]7O[C@@H]6C[C@@H]5O[C@]4(C)C[C@]3(C)O[C@@H]2C=C[C@]1(C)O; 0.05

From here, focus on the item given below.
*Q* Given the molecule C=CC/C=C\C=C/[C@H]1O[C@H]2C[C@H]3O[C@H]4CC[C@H]5O[C@H]6C[C@@]7(C)O[C@@]8(C)[C@@H](O)C[C@H](CCCO)O[C@@H]8C[C@@H]7O[C@@H]6C[C@@H]5O[C@]4(C)C[C@]3(C)O[C@@H]2C=C[C@@H]1O , what is its reported Min lethal dose?
*A* 0.34
